# System Tested: Alkaline phosphatase, tissue-nonspecific isozyme (Homo sapiens)
# Test Protocol: human TNAP enzyme activators, primary screen, biochemical, luminescent, intermediate phosphate acceptor level (AID 813)
# Measurement Context: purified TNAP, CDP-star luminescence, 100 mM DEA, 30 min; at 20 µM; hits give high values; scale: 0 levamisole-inhibited, 1 vehicle-only enzyme
Among all 64,000 compounds or so, fewer than 10 were called active. Only a sample is shown.
Measured Metric: activation factor
Lab note: record the figure alone, no unit after it.

Worked examples follow.
Problem: Which activation factor is listed for CCOc1ccc(CCNC(=O)C(CC)n2nc(C)n3c(cc4sccc43)c2=O)cc1OCC (stereo not drawn) ?
Solution: 1

Problem: Item: CC1(C)CC(=O)C2=C(C1)NCN(CCCN1CCOCC1)C2
Solution: 0.9

Problem: Item: CSc1ccc(S(=O)(=O)NCc2ccc(Cl)cc2)cc1
Solution: 0.8

Problem: Item: CCn1c(=O)cc(O)c2ccccc21
Solution: 1

More entries:
Problem: Which activation factor is listed for CC12CN(Cc3ccccc3)CC(C)(CN(Cc3ccccc3)C1)C2=NO ?
Solution: 1.2

Problem: Item: O=C(CN1CCN(c2ccc(F)cc2)CC1)Nc1cccc(C(F)(F)F)c1
Solution: 0.9
